Provide the recorded pIC50 for the entries that follow.
- system: human recombinant PDE5A (Homo sapiens, UniProt O76074)
- Construct: purchased SignalChem
- assay-procedure: PDE-Glo activity inhibition test, PDE5A
- Format: biochemical
- run-conditions: cGMP substrate, read-out: IC50 (CV%) PDE5A
Answers are plain numbers, as −log10 of the molar value.

CCCCn1c(=O)[nH]c2nc(-c3ccc(S(=O)(=O)N4CCN(c5ccc(Cl)cc5)CC4)cc3)[nH]c2c1=O
4.34
C#CCn1c(=O)c2c(nc(OCc3ccccc3Br)n2C)n(C)c1=O
4.19

// next item, pIC50 requested
Report pIC50 for `CCCn1c(=O)[nH]c2nc(-c3ccc(S(=O)(=O)N4CCN(c5ccc(Cl)cc5)CC4)cc3)[nH]c2c1=O` please. 4.40

----------
- system: human recombinant PDE3A (Homo sapiens)
- Sequence (Q14432 whole entry): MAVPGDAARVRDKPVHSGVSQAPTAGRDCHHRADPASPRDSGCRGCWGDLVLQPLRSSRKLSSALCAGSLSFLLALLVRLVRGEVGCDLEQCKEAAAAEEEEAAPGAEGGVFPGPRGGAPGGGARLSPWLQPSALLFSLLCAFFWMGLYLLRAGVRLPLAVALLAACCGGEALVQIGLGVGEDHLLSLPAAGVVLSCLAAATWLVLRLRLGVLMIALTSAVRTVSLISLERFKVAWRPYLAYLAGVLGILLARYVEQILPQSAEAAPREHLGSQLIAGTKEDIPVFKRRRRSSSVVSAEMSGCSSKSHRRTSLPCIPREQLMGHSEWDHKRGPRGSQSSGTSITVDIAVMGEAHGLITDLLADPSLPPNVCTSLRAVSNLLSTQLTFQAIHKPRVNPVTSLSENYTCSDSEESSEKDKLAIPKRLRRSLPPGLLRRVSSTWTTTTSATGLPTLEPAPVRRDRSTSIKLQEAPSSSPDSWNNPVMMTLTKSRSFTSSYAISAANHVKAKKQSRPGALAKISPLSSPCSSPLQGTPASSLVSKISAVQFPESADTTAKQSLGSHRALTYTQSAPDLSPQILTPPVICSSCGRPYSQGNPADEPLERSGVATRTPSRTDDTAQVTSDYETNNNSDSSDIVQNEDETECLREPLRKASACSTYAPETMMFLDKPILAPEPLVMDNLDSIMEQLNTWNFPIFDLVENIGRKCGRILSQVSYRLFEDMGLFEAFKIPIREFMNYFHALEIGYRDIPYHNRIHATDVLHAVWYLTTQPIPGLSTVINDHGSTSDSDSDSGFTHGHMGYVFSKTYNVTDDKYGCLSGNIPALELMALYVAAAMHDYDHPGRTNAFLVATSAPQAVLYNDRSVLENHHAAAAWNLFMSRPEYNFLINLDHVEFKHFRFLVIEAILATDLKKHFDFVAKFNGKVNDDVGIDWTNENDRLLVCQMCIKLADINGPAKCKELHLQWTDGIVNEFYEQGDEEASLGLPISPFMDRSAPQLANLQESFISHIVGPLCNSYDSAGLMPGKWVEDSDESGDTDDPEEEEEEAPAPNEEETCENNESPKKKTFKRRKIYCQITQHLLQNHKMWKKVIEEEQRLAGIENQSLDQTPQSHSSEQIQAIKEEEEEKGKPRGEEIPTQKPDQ
- assay-procedure: PDE-Glo activity inhibition test, PDE3A
- run-conditions: human recombinant PDE3A, cAMP substrate; read-out: IC50 (CV%) PDE3A
Provide the reported IC50 of each item.
Numbers only, in µM.

O=C1CCc2cc(OCCCCc3nnnn3C3CCCCC3)ccc2N1 [Cilostazol, cilostazol, reference compound]
0.0545

Query molecule follows.
IC50 for CC1CCC(N2CCCn3c2nc2c3c(=O)n(C)c(=O)n2C)CC1 (stereo not drawn) [KD-64] ? 10.3

----------
- System: lipid peroxidation in rat brain homogenate
- assay-procedure: In vitro lipid peroxidation (MDA/TBARS test)
- run-conditions: carvedilol tested at 10–3000 μM; Figure 8; read-out: EC50 antioxidant action (lipid peroxidation)
readout-name: EC50 (µM)
Give bare numbers, in µM.

Which EC50 value is on record for COc1ccccc1OCCNCC(O)COc1cccc2[nH]c3ccccc3c12 (stereo not shown) [Carvedilol, carvedilol, reference compound] ? 68.8
